Data origin, for the record: patent US8029764B2

Test system: colorectal tissue transcripts
Test: SAGE of normal, adenoma and cancer colorectal tissue (transcript tag counts)
Parameters: species or system human
Details: SAGE library AD1
Protocol: In an effort to identify potential molecular markers of early colorectal tumors, we have here analyzed gene expression in benign and malignant colorectal tumors in an unbiased and comprehensive fashion. […] The abundance of each tag provides a quantitative measure of the transcript level present within the mRNA population studied. […] For the current study, SAGE libraries derived from two samples of normal colonic epithelium, two colorectal adenomas, and two colorectal cancers were analyzed. […]
observable: AD1 (SAGE tag count)
Give bare numbers.

The cases that follow already have their AD1 (SAGE tag count) on record.
monomer_sequence="GCAGGGCCTC (chemistry not fully specified)" observable="AD1 (SAGE tag count)" meas_value=41
monomer_sequence="AGCCCGACCA (chemistry not fully specified)" observable="AD1 (SAGE tag count)" meas_value=2
monomer_sequence="GCCGACCAGG (chemistry not fully specified)" observable="AD1 (SAGE tag count)" meas_value=15
monomer_sequence="AGTGGGCTCA (chemistry not fully specified)" observable="AD1 (SAGE tag count)" meas_value=0
monomer_sequence="GCGAAACCCT (chemistry not fully specified)" observable="AD1 (SAGE tag count)" meas_value=123
monomer_sequence="GGAGGCCGAG (chemistry not fully specified)" observable="AD1 (SAGE tag count)" meas_value=5

Dear colleague, could you please provide AD1 (SAGE tag count) for the sequences listed below?
1. CTGAACCTCC (chemistry not fully specified)
2. GGATGGCTTA (chemistry not fully specified)
3. AGGATGGTCC (chemistry not fully specified; the letters are possibly those of the target site)
4. GATGAATCCG (chemistry not fully specified)
5. ACGGTCCAGG (chemistry not fully specified)
6. CCCCCGCGGA (chemistry not fully specified)
7. CGCTGTGGGG (chemistry not fully specified)
8. GACCAGTGGC (chemistry not fully specified)

Response given:
1: 2; 2: 2; 3: 5; 4: 2; 5: 0; 6: 6; 7: 19; 8: 4

Dear colleague, could you please provide AD1 (SAGE tag count) for the sequences listed below?
1. AATCACAAAT (chemistry not fully specified)
2. CAAATAAAAG (chemistry not fully specified)

Response given:
1. 1
2. 2
